# Target Or System: Estrogen receptor beta (Homo sapiens) (UniProt Q92731)
# Sequence (Q92731 whole entry): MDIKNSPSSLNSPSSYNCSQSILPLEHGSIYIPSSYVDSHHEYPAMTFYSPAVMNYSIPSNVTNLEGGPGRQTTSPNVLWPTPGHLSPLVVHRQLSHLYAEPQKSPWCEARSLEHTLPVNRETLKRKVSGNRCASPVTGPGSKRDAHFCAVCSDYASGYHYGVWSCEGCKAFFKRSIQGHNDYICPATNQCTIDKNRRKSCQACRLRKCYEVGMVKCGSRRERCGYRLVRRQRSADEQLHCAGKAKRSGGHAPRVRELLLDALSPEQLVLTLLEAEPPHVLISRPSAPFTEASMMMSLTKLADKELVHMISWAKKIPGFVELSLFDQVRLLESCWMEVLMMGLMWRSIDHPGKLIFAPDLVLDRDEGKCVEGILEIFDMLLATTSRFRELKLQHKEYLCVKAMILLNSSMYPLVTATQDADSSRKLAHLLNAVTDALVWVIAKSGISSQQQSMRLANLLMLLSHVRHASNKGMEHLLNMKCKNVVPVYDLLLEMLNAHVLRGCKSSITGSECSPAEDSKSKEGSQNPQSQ
# Assay Method Text: Relative binding affinity towards estrogen receptor 2 determined by a competitive radiometric binding assay using 10 nM [3H]estradiol as the radioligand
Cut-off 0.9 on relative binding affinity (RBA): below means met, at or above means not met.

Input Smiles	Class Name
CCCc1c(-c2ccc(O)cc2)oc(-c2ccc(O)cc2)c1-c1ccc(O)cc1	not met

Enquiry: Just wondering, is relative binding affinity (RBA) of Cc1c(-c2ccc(O)cc2)oc(-c2ccc(O)cc2)c1-c1ccc(O)cc1 below 0.9?
Return: met

Enquiry: Just wondering, is relative binding affinity (RBA) of CCc1c(-c2ccc(O)cc2)oc(-c2ccccc2)c1-c1ccc(O)cc1 below 0.9?
Return: not met

Enquiry: Just wondering, is relative binding affinity (RBA) of CCCc1c(-c2ccc(O)cc2)oc(-c2ccccc2)c1-c1ccc(O)cc1 below 0.9?
Return: not met

Enquiry: Just wondering, is relative binding affinity (RBA) of CCCCc1c(-c2ccc(O)cc2)oc(-c2ccc(O)cc2)c1-c1ccc(O)cc1 below 0.9?
Return: not met

Enquiry: Just wondering, is relative binding affinity (RBA) of CCc1c(-c2ccccc2)oc(-c2ccccc2)c1-c1ccc(O)cc1 below 0.9?
Return: met
